details: rabbit, 4 h
measured parameter: The cumulative amount of test compounds (mg)

Reference set, count: 5
Query: Value lookup for The cumulative amount of test compounds; key = O=C(O)c1cc(-c2ccc(F)cc2F)ccc1O [Compound-12, reference compound]
Result: 0.001

Query: Value lookup for The cumulative amount of test compounds; key = CC(=O)Oc1ccccc1C(=O)Oc1ccccc1C(=O)O [Compound-15, 2-(2-acetoxybenzoyl)oxybenzoic acid, reference compound]
Result: 0.001

Query: Value lookup for The cumulative amount of test compounds; key = O=C(Oc1ccccc1C(=O)O)c1ccccc1O [Compound-18, 2-(2-hydroxybenzoyl)oxybenzoic acid, reference compound]
Result: 0.001

Query: Value lookup for The cumulative amount of test compounds; key = CCN(CC)CCOC(=O)c1ccccc1OC(=O)c1ccccc1O.Cl [Compound-16]
Result: 1.71

Query: Value lookup for The cumulative amount of test compounds; key = CC(=O)Oc1ccccc1C(=O)O [Compound-3, Aspirin]
Result: 0.002

A: CCN(CC)CCOC(=O)c1cc(-c2ccc(F)cc2F)ccc1OC(C)=O.Cl [Compound-7]
B: CC(=O)Oc1ccc(-c2ccc(F)cc2F)cc1C(=O)O [Compound-9, reference compound]
Query: Exercise: compare A and B ; which one has the greater The cumulative amount of test compounds? Mark your answer with the label of the selected entry.
Result: A

* * *

details: rabbit, 8 h
measured parameter: The cumulative amount of test compounds (mg)

1: O=C(O)c1cc(-c2ccc(F)cc2F)ccc1O [Compound-12, reference compound]
2: Cl.O=C(Oc1ccccc1C(=O)OCC1CCCN1)c1ccccc1O (stereo not drawn)
3: CC(=O)Oc1ccc(-c2ccc(F)cc2F)cc1C(=O)O [Compound-9, reference compound]
4: O=C(Oc1ccccc1C(=O)O)c1ccccc1O [Compound-18, 2-(2-hydroxybenzoyl)oxybenzoic acid, reference compound]
Query: List the 4 entries from lowest The cumulative amount of test compounds to highest The cumulative amount of test compounds value. Use the labels to give the ranking in the order requested.
Result: 4, 3, 1, 2
(4: 0.001 mg, 3: 0.002 mg, 1: 0.003 mg, 2: 2.97 mg)

P: CCN(CC)CCOC(=O)c1ccccc1OC(=O)c1ccccc1OC(C)=O.Cl
Q: O=C(O)c1ccccc1O [Compound-6, Salicylic acid, reference compound]
Query: Looking at P and Q , which one comes out lower in The cumulative amount of test compounds terms? Mark your answer with the label of the selected entry.
Result: Q
(Q: 0.002 mg, P: 3.89 mg)

* * *

details: rabbit, 8 h
measured parameter: The cumulative amount of test compounds (mg)

Query: Value lookup for The cumulative amount of test compounds; key = "CCN(CC)CCOC(=O)c1cc(-c2ccc(F)cc2F)ccc1O.Cl"
Result: 4.39

Query: Value lookup for The cumulative amount of test compounds; key = Cl.O=C(OCC1CCCN1)c1cc(-c2ccc(F)cc2F)ccc1O (centres unmarked)
Result: 4.05

Query: Value lookup for The cumulative amount of test compounds; key = "CCN(CC)CCOC(=O)c1cc(-c2ccc(F)cc2F)ccc1OC(C)=O.Cl"
Result: 4.33

Query: Value lookup for The cumulative amount of test compounds; key = CC(=O)Oc1ccc(-c2ccc(F)cc2F)cc1C(=O)OCC1CCCN1.Cl (centres unmarked)
Result: 4.11

Query: Value lookup for The cumulative amount of test compounds; key = "CCN(CC)CCOC(=O)c1ccccc1OC(=O)c1ccccc1O.Cl"
Result: 3.56

* * *

details: rabbit, 1 h
measured parameter: The cumulative amount of test compounds (mg)

Reference set, count: 2
Query: Value lookup for The cumulative amount of test compounds; key = CCN(CC)CCOC(=O)c1cc(-c2ccc(F)cc2F)ccc1O.Cl [Compound-10]
Result: 0.49

Query: Value lookup for The cumulative amount of test compounds; key = CC(=O)Oc1ccccc1C(=O)O [Compound-3, Aspirin]
Result: 0.000

A: Cl.O=C(OCC1CCCN1)c1cc(-c2ccc(F)cc2F)ccc1O (centres unmarked) [Compound-11]
B: O=C(O)c1ccccc1O [Compound-6, Salicylic acid, reference compound]
Query: Looking at A and B , which one comes out lower in The cumulative amount of test compounds terms? Mark your answer with the label of the selected entry.
Result: B
(B: 0.000 mg, A: 0.43 mg)

1: O=C(O)c1cc(-c2ccc(F)cc2F)ccc1O [Compound-12, reference compound]
2: Cl.O=C(Oc1ccccc1C(=O)OCC1CCCN1)c1ccccc1O (centres unmarked) [Compound-17]
Query: Looking at 1 and 2 , which one comes out lower in The cumulative amount of test compounds terms? Mark your answer with the label of the selected entry.
Result: 1

P: CC(=O)Oc1ccc(-c2ccc(F)cc2F)cc1C(=O)O [Compound-9, reference compound]
Q: CCN(CC)CCOC(=O)c1ccccc1OC(=O)c1ccccc1O.Cl [Compound-16]
R: CCN(CC)CCOC(=O)c1cc(-c2ccc(F)cc2F)ccc1OC(C)=O.Cl [Compound-7]
Query: Put the items in sequence by The cumulative amount of test compounds, from largest down. Use the labels to give the ranking in the order requested.
Result: R, Q, P
(R: 0.53 mg, Q: 0.37 mg, P: 0.000 mg)

a: O=C(Oc1ccccc1C(=O)O)c1ccccc1O [Compound-18, 2-(2-hydroxybenzoyl)oxybenzoic acid, reference compound]
b: CCN(CC)CCOC(=O)c1ccccc1OC(=O)c1ccccc1OC(C)=O.Cl [Compound-13]
Query: Exercise: compare a and b ; which one has the greater The cumulative amount of test compounds? Mark your answer with the label of the selected entry.
Result: b

* * *

details: rabbit, 2 h
measured parameter: The cumulative amount of test compounds (mg)

Reference set, count: 2
Query: Value lookup for The cumulative amount of test compounds; key = CC(=O)Oc1ccccc1C(=O)Oc1ccccc1C(=O)OCC1CCCN1.Cl (centres unmarked)
Result: 0.84

Query: Value lookup for The cumulative amount of test compounds; key = O=C(Oc1ccccc1C(=O)O)c1ccccc1O [Compound-18, 2-(2-hydroxybenzoyl)oxybenzoic acid, reference compound]
Result: 0.000

A: CCN(CC)CCOC(=O)c1cc(-c2ccc(F)cc2F)ccc1O.Cl
B: CC(=O)Oc1ccc(-c2ccc(F)cc2F)cc1C(=O)O [Compound-9, reference compound]
C: O=C(O)c1ccccc1O [Compound-6, Salicylic acid, reference compound]
Query: Put the items in sequence by The cumulative amount of test compounds, from largest down. Use the labels to give the ranking in the order requested.
Result: A, C, B

* * *

details: rabbit, 4 h
measured parameter: The cumulative amount of test compounds (mg)

Query: Value lookup for The cumulative amount of test compounds; key = CC(=O)Oc1ccccc1C(=O)Oc1ccccc1C(=O)OCC1CCCN1.Cl (stereo not shown)
Result: 1.82

Query: Value lookup for The cumulative amount of test compounds; key = CC(=O)Oc1ccc(-c2ccc(F)cc2F)cc1C(=O)OCC1CCCN1.Cl (stereo not shown)
Result: 2.02

Query: Value lookup for The cumulative amount of test compounds; key = "CCN(CC)CCOC(=O)c1ccccc1OC(=O)c1ccccc1OC(C)=O.Cl"
Result: 1.99

Query: Value lookup for The cumulative amount of test compounds; key = "CCN(CC)CCOC(=O)c1cc(-c2ccc(F)cc2F)ccc1O.Cl"
Result: 2.12

A: Cl.O=C(OCC1CCCN1)c1cc(-c2ccc(F)cc2F)ccc1O (stereo not shown)
B: O=C(O)c1ccccc1O [Compound-6, Salicylic acid, reference compound]
C: Cl.O=C(Oc1ccccc1C(=O)OCC1CCCN1)c1ccccc1O (stereo not shown)
Query: Put the items in sequence by The cumulative amount of test compounds, from largest down. Use the labels to give the ranking in the order requested.
Result: A, C, B
(A: 2.01 mg, C: 1.39 mg, B: 0.002 mg)

* * *

This section presents molecules with their documented The cumulative amount of test compounds values.
details: rabbit, 8 h
Only the number, expressed in mg, is required.

Reference set, count: 2
Query: Value lookup for The cumulative amount of test compounds; key = CC(=O)Oc1ccccc1C(=O)Oc1ccccc1C(=O)O [Compound-15, 2-(2-acetoxybenzoyl)oxybenzoic acid, reference compound]
Result: 0.001

Query: Value lookup for The cumulative amount of test compounds; key = "CC(=O)Oc1ccccc1C(=O)O"
Result: 0.003

// below: The cumulative amount of test compounds requested for another molecule
Query: Value lookup for The cumulative amount of test compounds; key = CC(=O)Oc1ccccc1C(=O)Oc1ccccc1C(=O)OCC1CCCN1.Cl (stereo not drawn)
Result: 3.69

* * *

This section presents molecules with their documented The cumulative amount of test compounds values.
details: rabbit, 1 h
Only the number, expressed in mg, is required.

Reference set, count: 2
Query: Value lookup for The cumulative amount of test compounds; key = CC(=O)Oc1ccc(-c2ccc(F)cc2F)cc1C(=O)OCC1CCCN1.Cl (stereo not drawn)
Result: 0.45

Query: Value lookup for The cumulative amount of test compounds; key = CC(=O)Oc1ccccc1C(=O)Oc1ccccc1C(=O)O [Compound-15, 2-(2-acetoxybenzoyl)oxybenzoic acid, reference compound]
Result: 0.000

// below: The cumulative amount of test compounds requested for another molecule
Query: Value lookup for The cumulative amount of test compounds; key = CC(=O)Oc1ccccc1C(=O)Oc1ccccc1C(=O)OCC1CCCN1.Cl (stereo not drawn)
Result: 0.37
